Every entry's value here was drawn from patent US10266526B2.

Entries and their measured IC50 follow.
# Target: SMYD3 (Homo sapiens (Human))
# Assay Procedure: SMYD3 biochemical assay (SMYD3 enzyme assay on MEKK2 protein substrate, 3H-SAM scintillation proximity assay)
# Experimental Setup: read-out: SMYD3 Biochem IC50 (μM)*
Kindly provide the numeric value in µM only, without the unit symbol.

Worked examples follow.
compound=CC(=O)c1c[nH]c(C(=O)NC2CCNCC2)c1 measured_property=IC50 assay_result=45.8
compound=N[C@H]1CC[C@H](NC(=O)c2cn(C3CC3)nn2)CC1 measured_property=IC50 assay_result=15.4

Task: Would you kindly share the measured IC50 for Cc1cc(C(=O)NC(c2ccccc2)C2CCNCC2)n(-c2ccccc2)n1 (centres unmarked) ?
Result: 56.7

Task: IC50 for `O=C1Cc2cc(C(=O)NC3CCNCC3)cnc2N1` ?
Result: 86.1

* * *

# Target: SMYD3 (Homo sapiens (Human), UniProt Q9H7B4)
# Sequence (Q9H7B4 whole entry): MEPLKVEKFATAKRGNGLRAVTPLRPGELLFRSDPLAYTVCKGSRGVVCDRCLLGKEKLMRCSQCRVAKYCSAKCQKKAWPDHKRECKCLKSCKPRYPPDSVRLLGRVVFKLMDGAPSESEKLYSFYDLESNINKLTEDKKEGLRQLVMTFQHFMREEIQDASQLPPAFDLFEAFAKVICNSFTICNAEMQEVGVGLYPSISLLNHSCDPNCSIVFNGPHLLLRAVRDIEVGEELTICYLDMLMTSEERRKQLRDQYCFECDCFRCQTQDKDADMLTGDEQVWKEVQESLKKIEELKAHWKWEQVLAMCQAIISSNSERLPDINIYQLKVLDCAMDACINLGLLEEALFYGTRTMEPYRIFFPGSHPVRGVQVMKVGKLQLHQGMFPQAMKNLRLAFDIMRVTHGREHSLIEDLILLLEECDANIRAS
# Assay Procedure: SMYD3 biochemical assay (SMYD3 enzyme assay on MEKK2 protein substrate, 3H-SAM scintillation proximity assay)
# Experimental Setup: read-out: SMYD3 Biochem IC50 (μM)*
Each record here notes measured IC50.

Take a look at these entries with their results.
molecule="NCCC(=O)N[C@H]1CC[C@H](NC(=O)c2cccnc2)CC1 [compound 142]" assay_result="> 100 µM"
molecule="CC(NC(=O)c1cncc(F)c1)C1CCN(C(=O)[C@H](C)N)CC1 (stereo partly shown) [compound 157]" assay_result="> 100 µM"
molecule="N[C@H]1CC[C@H](NC(=O)c2ccc3c(c2)NC(=O)CC3)CC1 [compound 91]" assay_result="89.5 µM"

Task: For the molecule CC(=O)Nc1ccc(S(=O)(=O)N2CCC(NC(=O)c3ccncc3)CC2)cc1 [compound 4] , what IC50 is on record?
Result: > 100 µM

* * *

# Target: SMYD3 (Homo sapiens (Human))
# Assay Procedure: SMYD3 biochemical assay (SMYD3 enzyme assay on MEKK2 protein substrate, 3H-SAM scintillation proximity assay)
# Experimental Setup: Table 3A; average of n = 1 to n = 50; read-out: SMYD3 Biochem IC50
pIC50: −log10 of the molar value. Structures can show the parent of a compound that is named as a salt.
Could you label it true if measured pIC50 is 8 or higher, and false otherwise?

compound=O=C1Cc2cc(C(=O)N[C@H]3C[C@H]4CC[C@@H](C3)N4S(=O)(=O)CC3CCN(CCCC(F)(F)F)CC3)c(Cl)cc2N1 cat=true
compound=CCc1cccc(C(=O)N[C@H]2C[C@H]3CC[C@@H](C2)N3S(=O)(=O)CC2CCNCC2)c1 cat=false
compound=N[C@H]1CC[C@H](C(=O)N2[C@@H]3CC[C@H]2C[C@@H](NC(=O)c2ccc4c(c2)CC(=O)N4)C3)CC1 cat=false

Task: Identify whether the reported pIC50 of the following compound is 8 or greater: `O=C1Cc2cc(C(=O)N[C@H]3C[C@H]4CC[C@@H](C3)N4S(=O)(=O)CC3CCN(CCCO)CC3)c(Cl)cc2N1`
Result: true

Task: I'd appreciate it if you could say whether `NC1CCN(S(=O)(=O)N2[C@@H]3CC[C@H]2C[C@@H](NC(=O)c2cc4c(cc2Cl)NC(=O)C4)C3)CC1` has pIC50 at least equal to 8.
Result: true

Task: Threshold query (pIC50 >= 8) on `C[C@H]1C[C@@H](NC(=O)c2ccc3c(c2)CC(=O)N3)CCN1S(=O)(=O)CC1CCNCC1`
Result: true

Task: Confirm if pIC50 reported for the compound NC1CCN(S(=O)(=O)N2[C@@H]3CC[C@H]2C[C@@H](NC(=O)c2ccc4c(c2)NC(=O)CO4)C3)CC1 [compound 609, Hydrochloride] is 8 or above.
Result: false

Task: # bool: pIC50 of `C[C@H]1C[C@@H](NC(=O)c2ccc3c(c2)CC(=O)N3)CCN1S(=O)(=O)N1CCC(N)CC1` >= 8
Result: true

Task: Check this compound for pIC50 at or above 8: `CC(C)(N)c1ccc(S(=O)(=O)N2[C@@H]3CC[C@H]2C[C@@H](NC(=O)c2cc4c(cc2Cl)NC(=O)C4)C3)cc1`
Result: false

Task: Does the compound `CNC1CCN(S(=O)(=O)N2[C@@H]3CC[C@H]2C[C@@H](NC(=O)c2ccc4c(c2)CC(=O)N4)C3)CC1` have recorded pIC50 that is 8 or more?
Result: true

Task: Can `CC(C)(N)c1ccc(S(=O)(=O)N2[C@@H]3CC[C@H]2C[C@@H](NC(=O)c2ccc4c(c2)CC(=O)N4)C3)cc1` be said to have pIC50 at or above 8?
Result: false

Task: Could you tell me if the measured pIC50 of `O=C1Cc2cc(C(=O)NC3CCN(S(=O)(=O)CC4CCNCC4)CC3)ccc2N1` reaches 8 or more?
Result: false
